Assembled from different publications: IC50 for M-phase inducer phosphatase 1 (Homo sapiens, UniProt P30304).
Readout Label: IC50 (µM)

A. CCCCCCCC/C=C\CCCCCCCC1=C(CCC(=O)O)C(=O)OC1=O
B. CC(C)CCC[C@@H](C)[C@H]1CCC2C(CCCC(=O)O)CCC[C@@]21C (stereo not given in full)
C. CCCCCCCCCCN1C(=O)/C(=C/C(=O)O)c2ccccc21
Request: I'd appreciate it if you sorted the entries above by their IC50, lowest to highest. Lab note: final answer is the ordered label list.
Response: A, B, C

* * *

Literature pIC50 values, system: M-phase inducer phosphatase 1 (Homo sapiens).
Sequence (P30304 whole entry): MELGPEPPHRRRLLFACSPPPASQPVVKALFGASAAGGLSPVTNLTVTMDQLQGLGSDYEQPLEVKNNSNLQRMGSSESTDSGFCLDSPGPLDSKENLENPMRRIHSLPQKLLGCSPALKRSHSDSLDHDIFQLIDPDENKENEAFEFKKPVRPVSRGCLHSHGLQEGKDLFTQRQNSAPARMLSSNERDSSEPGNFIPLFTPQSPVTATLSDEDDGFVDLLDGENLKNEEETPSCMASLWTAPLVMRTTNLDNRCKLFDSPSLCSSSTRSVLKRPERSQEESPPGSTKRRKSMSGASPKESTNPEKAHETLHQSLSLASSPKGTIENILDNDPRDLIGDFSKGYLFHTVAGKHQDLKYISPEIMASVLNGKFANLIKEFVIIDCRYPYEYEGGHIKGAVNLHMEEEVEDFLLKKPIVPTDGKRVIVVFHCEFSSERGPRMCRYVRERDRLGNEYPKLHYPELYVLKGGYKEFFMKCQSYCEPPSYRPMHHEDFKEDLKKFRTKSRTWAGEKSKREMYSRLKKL
pIC50: −log10 of the molar value.
Readout Label: pIC50

Answered examples (5):
CC(C)CCC[C@@H](C)[C@H]1CCC2C(C)(COP(=O)(O)O)CCC[C@@]21C (single isomer, unassigned) = 6.05
O=C1N=C(Nc2ccccc2Cl)S/C1=C\C=C\c1ccco1 = 5.00
O=C1C=C(O)C(=O)C(c2c[nH]c3ccc(OCc4ccccc4)cc23)=C1O = 5.26
CC(C)CCC[C@@H](C)[C@H]1CCC2[C@](C)(CCO)CCC[C@@]21C (stereo not given in full) = 5.26
Cn1c(SCC(=O)c2ccc(-c3ccccc3)cc2)nnc1-c1ccncc1 = 4.88

a. O=C1C=C(O)C(=O)C(c2c[nH]c3cc(Cl)ccc23)=C1O
b. Cc1ccc(-c2nnc(SCC(=O)c3ccc(O)c(O)c3)n2-c2ccccc2)cc1
c. Cc1ccccc1Cc1cccc2c(C3=C(O)C(O)=CC(=O)C3=O)c[nH]c12
d. CCCCCCCCCCCCCCN1C(=O)/C(=C\C(=O)O)c2ccccc21
Request: Highest pIC50 first, then in falling order down to the smallest. // respond by listing labels in the order requested
Response: c, d, a, b
(c: 6.00, d: 5.77, a: 5.38, b: 5.15)
